System: Capnocytophaga sputigena
Experiment: Phenotype microarray metabolic activity
Type: cell-based
Settings: C sputigena; 24 hrs
Description: The extent of metabolic activity of the tested bacteria in the presence of the above-mentioned saccharides after 24 hours and 48 hours was investigated through a high throughput phenotype microarray system (PM) for microbial cells (Biolog Inc.). […] All plates were incubated in an anaerobic atmosphere at 37° C. Color changes were measured spectrophotometrically at 492 nm (Thermo Scientific Multiskan Ascent) at 24 hrs and 48 hrs using the same plate at both time points. […]
Could you mark each record t if its metabolic activity: OD 492 nm divided by OD of control (control = 1) falls strictly under 0.6, and f if it equals or exceeds it?

- OC[C@@H](O)[C@@H](O[C@H]1O[C@H](CO)[C@H](O)[C@H](O)[C@H]1O)[C@H](O)[C@@H](O)CO: f
- CC(=O)N[C@H](C=O)[C@@H](O)[C@H](O)[C@H](O)CO: f
- OC[C@H]1O[C@@](O)(CO)[C@@H](O[C@H]2O[C@H](CO)[C@@H](O)[C@H](O)[C@H]2O)[C@@H]1O: f

Okay, next one:
State whether 0.6 exceeds metabolic activity: OD 492 nm divided by OD of control (control = 1) recorded for O[C@H]1[C@H](O)[C@@H](O)[C@H](O)[C@@H](O)[C@H]1O .
t

* * *

Tested on: Streptococcus mutans
Assay: Phenotype microarray metabolic activity
Assay type: cell-based
Details: S mutans; 48 hrs
measurement_label: metabolic activity: OD 492 nm divided by OD of control (control = 1)

- OC[C@H]1O[C@@](CO)(O[C@H]2O[C@H](CO)[C@@H](O)[C@H](O)[C@H]2O)[C@@H](O[C@H]2O[C@H](CO)[C@@H](O)[C@H](O)[C@H]2O)[C@@H]1O [D-Melezitose]: 0.9402
- CC(=O)N[C@H](C=O)[C@@H](O)[C@H](O)[C@H](O)CO [N-acetyl-D-mannosamine, 2-acetamido-2-deoxy-D-mannose]: 1.0176
- OC[C@@H](O)[C@@H](O[C@H]1O[C@H](CO)[C@H](O)[C@H](O)[C@H]1O)[C@H](O)[C@@H](O)CO [D-Lactitol, 4-O-α-D-galactopyranosyl-D-glucitol]: 2.7520

Lab book: metabolic activity: OD 492 nm divided by OD of control (control = 1) of OC[C@H]1O[C@@](O)(CO)[C@@H](O[C@H]2O[C@H](CO)[C@@H](O)[C@H](O)[C@H]2O)[C@@H]1O [D-Turanose] noted as 2.1955

Noted for O[C@H]1[C@H](O)[C@@H](O)[C@H](O)[C@@H](O)[C@H]1O [Myo-Inositol] : its metabolic activity: OD 492 nm divided by OD of control (control = 1) reads 0.8221

* * *

System: Streptococcus mutans
Experiment: Phenotype microarray metabolic activity
Format: cell-based
Settings: S mutans; 24 hrs
measurement_label: metabolic activity: OD 492 nm divided by OD of control (control = 1)

Take a look at these entries with their results.
• O[C@H]1[C@H](O)[C@@H](O)[C@H](O)[C@@H](O)[C@H]1O = 0.8961
• OC[C@H]1O[C@@](CO)(O[C@H]2O[C@H](CO)[C@@H](O)[C@H](O)[C@H]2O)[C@@H](O[C@H]2O[C@H](CO)[C@@H](O)[C@H](O)[C@H]2O)[C@@H]1O = 1.0420
• CC(=O)N[C@H](C=O)[C@@H](O)[C@H](O)[C@H](O)CO = 1.0429
• OC[C@@H](O)[C@@H](O[C@H]1O[C@H](CO)[C@H](O)[C@H](O)[C@H]1O)[C@H](O)[C@@H](O)CO = 2.0160

From here, focus on the item given below.
OC[C@H]1O[C@@](O)(CO)[C@@H](O[C@H]2O[C@H](CO)[C@@H](O)[C@H](O)[C@H]2O)[C@@H]1O has a reported metabolic activity: OD 492 nm divided by OD of control (control = 1) of 1.4769

* * *

Test system: Streptococcus salivarius
Test: Phenotype microarray metabolic activity
Assay type: cell-based
Details: S salivarius; 48 hrs
Readings of metabolic activity: OD 492 nm divided by OD of control (control = 1) for the listed compounds
Lab note: record the figure alone, no unit after it.

- CC(=O)N[C@H](C=O)[C@@H](O)[C@H](O)[C@H](O)CO: 0.9795
- OC[C@H]1O[C@@](O)(CO)[C@@H](O[C@H]2O[C@H](CO)[C@@H](O)[C@H](O)[C@H]2O)[C@@H]1O: 1.2834
- O[C@H]1[C@H](O)[C@@H](O)[C@H](O)[C@@H](O)[C@H]1O: 0.8260
- OC[C@H]1O[C@@](CO)(O[C@H]2O[C@H](CO)[C@@H](O)[C@H](O)[C@H]2O)[C@@H](O[C@H]2O[C@H](CO)[C@@H](O)[C@H](O)[C@H]2O)[C@@H]1O: 0.9869

Entry OC[C@@H](O)[C@@H](O[C@H]1O[C@H](CO)[C@H](O)[C@H](O)[C@H]1O)[C@H](O)[C@@H](O)CO ; assay system Streptococcus salivarius; metabolic activity: OD 492 nm divided by OD of control (control = 1) recorded at 5.1101

* * *

System: Fusobacterium nucleatum
Experiment: Phenotype microarray metabolic activity
Assay type: cell-based
Conditions: F nucleatum; 24 hrs
measurement_label: metabolic activity: OD 492 nm divided by OD of control (control = 1)
// return just the number, without any unit appended

Below, each entry is followed by its recorded metabolic activity: OD 492 nm divided by OD of control (control = 1) result.
• OC[C@H]1O[C@@](CO)(O[C@H]2O[C@H](CO)[C@@H](O)[C@H](O)[C@H]2O)[C@@H](O[C@H]2O[C@H](CO)[C@@H](O)[C@H](O)[C@H]2O)[C@@H]1O [D-Melezitose] = 0.9719
• CC(=O)N[C@H](C=O)[C@@H](O)[C@H](O)[C@H](O)CO [N-acetyl-D-mannosamine, 2-acetamido-2-deoxy-D-mannose] = 1.0897
• OC[C@@H](O)[C@@H](O[C@H]1O[C@H](CO)[C@H](O)[C@H](O)[C@H]1O)[C@H](O)[C@@H](O)CO [D-Lactitol, 4-O-α-D-galactopyranosyl-D-glucitol] = 0.9115
• O[C@H]1[C@H](O)[C@@H](O)[C@H](O)[C@@H](O)[C@H]1O [Myo-Inositol] = 0.9063

Result for OC[C@H]1O[C@@](O)(CO)[C@@H](O[C@H]2O[C@H](CO)[C@@H](O)[C@H](O)[C@H]2O)[C@@H]1O [D-Turanose] , tested on Fusobacterium nucleatum, metabolic activity: OD 492 nm divided by OD of control (control = 1): 1.3517

* * *

System: Streptococcus salivarius
Assay: Twenty-four hour optical density growth in BHI
Assay type: cell-based
Settings: S salivarius; 25 μmol/ml
measurement_label: extent of growth: maximal OD630 over 24 hr divided by maximal OD of control (control = 1)

- CC(=O)N[C@H](C=O)[C@@H](O)[C@H](O)[C@H](O)CO [N-acetyl-D-mannosamine, 2-acetamido-2-deoxy-D-mannose]: 0.9251
- OC[C@H]1O[C@@](O)(CO)[C@@H](O[C@H]2O[C@H](CO)[C@@H](O)[C@H](O)[C@H]2O)[C@@H]1O [D-Turanose]: 0.9445
- O[C@H]1[C@H](O)[C@@H](O)[C@H](O)[C@@H](O)[C@H]1O [Myo-Inositol]: 0.8905

Turning now to a further record.
Looking up OC[C@@H](O)[C@@H](O[C@H]1O[C@H](CO)[C@H](O)[C@H](O)[C@H]1O)[C@H](O)[C@@H](O)CO [D-Lactitol, 4-O-α-D-galactopyranosyl-D-glucitol] , I see its extent of growth: maximal OD630 over 24 hr divided by maximal OD of control (control = 1) listed as 1.3159

* * *

Tested on: Veillonella parvula
Experiment: Twenty-four hour optical density growth in BHI
Assay type: cell-based
Conditions: V parvula; 10 μmol/ml
Recorded extent of growth: maximal OD630 over 24 hr divided by maximal OD of control (control = 1) for the following molecules
// no unit string in output, number only

• OC[C@H]1O[C@@](O)(CO)[C@@H](O[C@H]2O[C@H](CO)[C@@H](O)[C@H](O)[C@H]2O)[C@@H]1O [D-Turanose] = 0.9980

Entry CC(=O)N[C@H](C=O)[C@@H](O)[C@H](O)[C@H](O)CO [N-acetyl-D-mannosamine, 2-acetamido-2-deoxy-D-mannose] ; assay system Veillonella parvula; extent of growth: maximal OD630 over 24 hr divided by maximal OD of control (control = 1) recorded at 1.0174

Form: item O[C@H]1[C@H](O)[C@@H](O)[C@H](O)[C@@H](O)[C@H]1O [Myo-Inositol] ; test system Veillonella parvula; extent of growth: maximal OD630 over 24 hr divided by maximal OD of control (control = 1): 0.9049

OC[C@@H](O)[C@@H](O[C@H]1O[C@H](CO)[C@H](O)[C@H](O)[C@H]1O)[C@H](O)[C@@H](O)CO [D-Lactitol, 4-O-α-D-galactopyranosyl-D-glucitol] tested on Veillonella parvula gave extent of growth: maximal OD630 over 24 hr divided by maximal OD of control (control = 1): 0.8854
